Exercise: for every item that follows, state its recorded growth inhibition.
- ASSAY PROTOCOL: NCI Yeast Anticancer Drug Screen. Data for the wt2 strain (AID 169);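 note: 0% = growth of vehicle-treated yeast cultures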
- RUN CONDITIONS: S. cerevisiae wt2 strain growth inhibition; at 33.0 µM; stronger effect = higher value
Compounds without any hit were thinned out: in the full panel of roughly 79,000, 15% have a hit.
Write the number in % without appending the unit.

Ask: Check the records and state growth inhibition for `Clc1nc(Cl)nc(Nc2cccc3ccccc23)n1`
Result: 93

Ask: # return recorded growth inhibition for input COc1ccc(C(OCC2OC(n3cnc4c(=O)n(Cc5ccccc5[N+](=O)[O-])nnc43)C(O)C2O)(c2ccccc2)c2ccc(OC)cc2)cc1 (stereo not given)
Result: 13

Ask: Indicate the recorded growth inhibition value for this compound: `C=COC(=O)N[C@H]1CCc2cc(OC)c(OC)c(OC)c2-c2ccc(SC)c(=O)cc21`
Result: 1

Ask: Recall and state the measured growth inhibition for `Cc1c(C(=O)/C=C/c2ccccc2[N+](=O)[O-])[n+](=O)c2ccccc2n1[O-]` .
Result: 84

Ask: Provide only the value of recorded growth inhibition for `CS(=O)(=O)O.[Ag]`
Result: 99

Ask: Determine from records and report growth inhibition for `O=C1c2ccccc2-c2cc3ccccc3c(=O)n21`
Result: 73

Ask: Give the value of growth inhibition reported for the following: `CNCC(C)CNC`
Result: -37

Ask: Give the reported growth inhibition for this compound. `CCCCCCNCCCNc1c2ccccc2nc2cccc([N+](=O)[O-])c12`
Result: 31

Ask: # return recorded growth inhibition for entry CC(=O)/C(=C\c1ccc(Cl)c(Cl)c1)C(=O)C(C)CN(C)C (stereo not given)
Result: 88

Ask: Give a short answer stating reported growth inhibition for `CCOC(=O)/C(=C\c1cccc(C)c1)C(C)=O` .
Result: 92

Ask: Consider the compound `CC(C)OC(=O)NNc1cccc(Cl)c1` . State its measured growth inhibition.
Result: 97

Ask: Read off the recorded growth inhibition for `O=[N+]([O-])c1ccc(S(=O)(=O)Cc2ccccc2)c([N+](=O)[O-])c1`
Result: 98

Ask: Return growth inhibition (reported value) for this compound: COc1cc(C2C3=C(COC3=O)Oc3cc4c(cc32)OCO4)cc(OC)c1O (stereo not given)
Result: 6

Ask: Kindly indicate its recorded growth inhibition. Item: `NC(=S)N1N=C2c3ccccc3CC[C@H]2[C@@H]1c1ccc(Cl)cc1`
Result: 35

Ask: Identify the reported growth inhibition for the following entry. `O=C(Nn1c(-c2ccccc2)nc2ccccc2c1=O)c1ccc(CS)cc1`
Result: 34

Ask: Give me measured growth inhibition, please, for this compound: `Cc1cc(OCc2nc(N)nc(N)c2-c2ccc(Cl)c(Cl)c2)ccc1[N+](=O)[O-]`
Result: 4

Ask: Indicate its recorded growth inhibition; the compound in question is `CCCCS(=O)(=O)Nc1ccc(Nc2c3ccccc3nc3ccccc23)c(OC)c1`
Result: 41

Ask: Kindly indicate its recorded growth inhibition. Item: `CCC(/C=C/c1ccccc1)=N\Nc1ccc(Cl)cc1`
Result: 80

Ask: Using the record for `Nc1ccc(N=Nc2ccc(-c3ccc(O)cc3)cc2)c2ccc(S(=O)(=O)O)cc12` , state its measured growth inhibition.
Result: 16

Ask: Entry `C1=CCN([B-](c2ccccc2)[C+]2CCCCC2)C=C1` needs its growth inhibition filled in; supply it.
Result: 94

Ask: Could you please provide reported growth inhibition for `CC(C)OP(=O)(OC(C)C)/C(Cl)=N/Nc1ccc([N+](=O)[O-])cc1` ? Thanks!
Result: 71

Ask: Report growth inhibition for CC(C)C(=O)CC(Sc1ccc(N)cc1)c1ccccc1 (stereo not given)
Result: 47

Ask: Give the reported growth inhibition for this compound. `Cc1cc(C)c(S(=O)(=O)c2ccc(Cl)cc2)c(C)c1`
Result: -6

Ask: Tell me measured growth inhibition for `OB(O)c1ccccc1C#Cc1ccccc1` please.
Result: 23

Ask: Indicate its recorded growth inhibition; the compound in question is `Nc1ccc(S(=O)(=O)Nc2nc3c(c(=O)[nH]2)CCCC3)cc1`
Result: 100
